experiment: yeast display, Sf9 membrane polyspecificity reagent, FACS + sequencing; frameworks hold sequencing errors
MEASURED_ATTRIBUTE: polyreactivity (PSR sort gate)

* QVQLLESGGGLVQAGRSLRLSCAASGRIFVYYAMGWYRQAPGQERELVATISWSGGSTYYADSVKGRFTISRDNAKNTVYLELNSLKPEDTAVYYCAAEKYISYYSVKRQENGYWGQGSQVTVSS | low polyreactivity
* QVHLVESGGGLVQAGGSLRLSCAASGSTFSYYAMGWYRQAPGKERELVAAISRSGGSTYYPDSVKGRFTISRDNAKNTVYLQMNSLKPEDTADYSCNRYYYTVTREFDYWGQGSQVTVSS | low polyreactivity
